Target: Glutamate receptor 4 (Homo sapiens, UniProt P48058)
Sequence (P48058 whole entry): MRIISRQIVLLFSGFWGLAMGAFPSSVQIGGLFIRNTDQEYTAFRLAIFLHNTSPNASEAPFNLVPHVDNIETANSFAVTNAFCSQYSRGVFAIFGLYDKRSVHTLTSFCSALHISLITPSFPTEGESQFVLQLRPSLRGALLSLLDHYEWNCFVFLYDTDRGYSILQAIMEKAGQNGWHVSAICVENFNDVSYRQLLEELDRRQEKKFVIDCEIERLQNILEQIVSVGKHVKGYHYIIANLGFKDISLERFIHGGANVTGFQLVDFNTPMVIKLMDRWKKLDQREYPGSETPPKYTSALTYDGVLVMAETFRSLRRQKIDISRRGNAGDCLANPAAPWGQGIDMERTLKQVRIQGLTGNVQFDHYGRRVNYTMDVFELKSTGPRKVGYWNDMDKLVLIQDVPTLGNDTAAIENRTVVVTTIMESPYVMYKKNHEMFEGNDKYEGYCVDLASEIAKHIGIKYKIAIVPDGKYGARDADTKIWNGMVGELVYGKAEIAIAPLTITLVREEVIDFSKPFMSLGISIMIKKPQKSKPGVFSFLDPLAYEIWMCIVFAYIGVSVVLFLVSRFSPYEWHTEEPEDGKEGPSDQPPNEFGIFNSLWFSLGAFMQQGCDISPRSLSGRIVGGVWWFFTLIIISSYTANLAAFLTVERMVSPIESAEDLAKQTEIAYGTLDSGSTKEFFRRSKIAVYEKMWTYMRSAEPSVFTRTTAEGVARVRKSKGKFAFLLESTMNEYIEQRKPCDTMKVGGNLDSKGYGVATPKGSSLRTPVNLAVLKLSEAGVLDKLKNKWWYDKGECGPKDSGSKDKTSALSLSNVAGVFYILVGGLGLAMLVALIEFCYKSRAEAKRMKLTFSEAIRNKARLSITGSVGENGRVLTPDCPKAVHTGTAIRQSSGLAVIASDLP
Assay: Antagonist activity at closed state of GluA4 (unknown origin) assessed as reduction in glutamate-induced current response in presence of 100 uM glutamate
MEASURED_PARAMETER: pKi
Schema: pKi number; meaning minus log10 of the concentration expressed in molar units.

Per the record, Cc1cc(C2=NN(CC3CC(Br)=NO3)C(=O)Cc3cc4c(cc32)OCCO4)cc(C)c1N (stereo unspecified) has pKi of 5.13

###

Reported pKi by item:
Molecular target: Glutamate receptor 2 (Homo sapiens)
Sequence (P42262 whole entry, canonical isoform): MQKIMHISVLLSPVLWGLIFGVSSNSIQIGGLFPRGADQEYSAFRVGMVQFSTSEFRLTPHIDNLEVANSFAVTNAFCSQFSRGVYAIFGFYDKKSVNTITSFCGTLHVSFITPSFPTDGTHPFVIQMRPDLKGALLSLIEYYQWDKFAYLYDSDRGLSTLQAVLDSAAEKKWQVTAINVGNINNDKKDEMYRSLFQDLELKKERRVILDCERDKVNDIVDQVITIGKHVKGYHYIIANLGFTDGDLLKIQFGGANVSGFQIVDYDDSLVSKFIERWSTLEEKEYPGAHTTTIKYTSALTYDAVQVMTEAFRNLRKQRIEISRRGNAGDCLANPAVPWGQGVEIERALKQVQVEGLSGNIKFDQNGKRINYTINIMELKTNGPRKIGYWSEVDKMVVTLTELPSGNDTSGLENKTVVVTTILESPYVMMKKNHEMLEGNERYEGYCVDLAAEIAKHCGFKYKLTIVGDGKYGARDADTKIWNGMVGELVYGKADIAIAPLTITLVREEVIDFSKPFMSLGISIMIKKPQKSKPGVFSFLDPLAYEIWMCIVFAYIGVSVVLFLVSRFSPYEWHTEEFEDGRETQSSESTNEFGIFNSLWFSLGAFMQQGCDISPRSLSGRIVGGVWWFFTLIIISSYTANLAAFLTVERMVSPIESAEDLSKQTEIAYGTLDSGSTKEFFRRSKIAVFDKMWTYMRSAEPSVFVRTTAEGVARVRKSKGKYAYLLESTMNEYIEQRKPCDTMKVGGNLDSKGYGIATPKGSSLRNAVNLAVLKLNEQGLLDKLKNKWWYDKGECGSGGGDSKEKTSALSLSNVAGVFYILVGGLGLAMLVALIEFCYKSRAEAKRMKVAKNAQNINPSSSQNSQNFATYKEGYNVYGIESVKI
Test: Antagonist activity at closed state of GFP-tagged GluA2Qflip isoform (unknown origin) expressed in HEK293S cells assessed as reduction in glutamate-induced current response in presence of 0.1 mM glutamate by whole cell assay
Type: cell-based
The meaning of pKi here: minus log10 of the concentration in molar units.

Examples from the recorded data:
The molecule listed as Nc1ccc(C2=NNC(=O)Cc3cc4c(cc32)OCCO4)cc1 has a reported pKi of 4.68

Briefly, pKi measured for CC1=NN=C(c2ccc(N)cc2)c2cc3c(cc2C1)OCO3 : 5.40

Reported pKi of Cc1cc(C2=NNC(=O)Cc3cc4c(cc32)OCCO4)cc(C)c1N : 4.03

// switching to the query molecule
Recorded pKi (molecule Cc1cc(C2=NNC(=O)Cc3cc4c(cc32)OCCO4)ccc1N ): 5.40
